# System: CP329
# ASSAY_DETAILS: qHTS profiling for inhibitors of Plasmodium falciparum proliferation (AID 504749); note: nearly all actives have a fitted effect of over 60% in size; note: potency is the fitted concentration of half-maximal effect
# STATED_CONDITIONS: P. falciparum in erythrocytes, SYBR Green DNA, 72 h; series mostly up to 28.7 µM
Records with an inconclusive call do not appear. Active and inactive are the calls of the source. Calls come from the whole dose curve; as a rule, active = well fitted inhibition curve with a large enough effect; inconclusive = small, poorly fitted or top-dose-only effect; inactive = flat fitted curve, though single readings scatter.

COMPOUND | Potency
COC(=O)C(CN)c1c[nH]c2ccc(OC)cc12 (stereo not drawn) | inactive
Cn1c(=O)c2c(ncn2CCOC(=O)C(C)(C)Oc2ccc(Cl)cc2)n(C)c1=O | inactive
CC(=O)c1ccc2c(c1)N(CCCN1CCN(CCO)CC1)c1ccccc1S2 | 15.1 µM (active)
COC(=O)c1ccccc1O | inactive
CCCc1nc(C(C)(C)O)c(C(=O)OCc2oc(=O)oc2C)n1Cc1ccc(-c2ccccc2-c2nn[nH]n2)cc1 | inactive
CC/C=C\C/C=C\C/C=C\C/C=C\C/C=C\C/C=C\CCC(=O)O | inactive
CCCCCCCCCCCCCCCCCCCCCC(=O)Nc1ccn([C@@H]2O[C@H](CO)[C@@H](O)[C@@H]2O)c(=O)n1 | inactive
CC(C)(COP(=O)(O)OP(=O)(O)OC[C@H]1O[C@@H](n2cnc3c(N)ncnc32)[C@H](O)[C@@H]1OP(=O)(O)O)C(O)C(=O)NCCC(=O)NCCS (stereo partly drawn) | inactive
Cc1cc2nc3c(=O)[nH]c(=O)nc-3n(C[C@H](O)[C@H](O)[C@H](O)COP(=O)(O)OP(=O)(O)OC[C@H]3O[C@@H](n4cnc5c(N)ncnc54)[C@H](O)[C@@H]3O)c2cc1C | inactive
N=C(N)n1cccn1 | inactive
O=C(OC1C[C@@H]2CC3C[C@H](C1)N2CC3=O)c1c[nH]c2ccccc12 (stereo partly drawn) | inactive
CC/C=C\C/C=C\C/C=C\CCCCCCCC(=O)O | inactive
CCN(CC)CCC(=O)N1c2ccccc2Sc2ccc(C(F)(F)F)cc21 | inactive
O=C(/C=C/c1cccc(F)c1)NC1CC1 | inactive
COc1cc(S(C)=O)ccc1-c1nc2ncccc2[nH]1 (stereo not drawn) | inactive
CN1c2c(nc(N)[nH]c2=O)NCC1CNc1ccc(C(=O)NC(CCC(=O)O)C(=O)O)cc1 (stereo not drawn) | inactive
CNC(=O)C[C@@H](N)C(=O)N[C@@H](C(=O)N[C@@H]1C(=O)N2[C@@H]1SC(C)(C)[C@@H]2C(=O)O)c1ccc(O)cc1 | inactive
COC1=C(OC)C(=O)C(C/C=C(\C)CC/C=C(\C)CC/C=C(\C)CC/C=C(\C)CC/C=C(\C)CC/C=C(\C)CC/C=C(\C)CC/C=C(\C)CC/C=C(\C)CCC=C(C)C)=C(C)C1=O | inactive
